Reference source: the supplement of paper PMC10567573

Would you kindly list protein stability index for each of these variants?
B1: MTMR15 (parent)
chain: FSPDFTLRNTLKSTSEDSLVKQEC

variants of: B1; experiment: protein stability index of a GFP-peptide fusion (GPS, HEK-293T) (PSI 1-6); higher = more stable; settings: c terminus: a fixed tail appended;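 also: lentivirally expressed fusions sorted by FACS into six bins by GFP to DsRed ratio, PSI derived from sequencing read proportions per bin multiplied by bin number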
Lab note: jot the number down without any unit.

Ask: May I ask what protein stability index has been recorded for FSPDFTLRNTLKSGSEDSLVKQEC [T14G] ?
Reply: 2.49

Ask: Given the variant FSPDFTLRNTLKSTEEDSLVKQEC [S15E] , what is its reported protein stability index?
Reply: 1.82

Ask: Fill in: protein stability index of FSPDFTKRNTLKSTSEDSLVKQEC [L7K] is ___
Reply: 2.39

Ask: Entry FSPDFALRNTLKSTSEDSLVKQEC [T6A] has what protein stability index?
Reply: 1.72

Ask: Which protein stability index value belongs to FSPDFTLRNNLKSTSEDSLVKQEC [T10N] ?
Reply: 1.87

Ask: Look up protein stability index for this variant: FSPDFTLRNTLKSTSEDSLVKWEC [Q22W]
Reply: 2.08

Ask: What value of protein stability index has been recorded for this entry: FSPDFKLRNTLKSTSEDSLVKQEC [T6K]
Reply: 2.01

Ask: Using the record for FSPDFTLRNTLKSTSETSLVKQEC [D17T] , report its protein stability index.
Reply: 2.22

Ask: Find the recorded protein stability index belonging to FSPDFTLRNTLKCTSEDSLVKQEC [S13C] and report it.
Reply: 2.08

Ask: Give its protein stability index value. Item: FSPWFTLRNTLKSTSEDSLVKQEC [D4W]
Reply: 1.96

Ask: Given FSPDFTLRNTLKSTSEDSLVKQKC [E23K] , state its recorded protein stability index.
Reply: 1.61

Ask: # query: protein stability index of entry FSPDFTLRNALKSTSEDSLVKQEC [T10A]
Reply: 2.16

Ask: Bench note: what protein stability index did FSPDFTLRNTLGSTSEDSLVKQEC [K12G] show?
Reply: 2.24

Ask: # get_value(readout='protein stability index', item= FSPDFTLRNTLKSTSELSLVKQEC [D17L] )
Reply: 2.36

Ask: Look up protein stability index for this variant: FSPDFTLRNTLKSTNEDSLVKQEC [S15N]
Reply: 1.43

Ask: Fill in: protein stability index of FSPDFTLRNTLKSTSQDSLVKQEC [E16Q] is ___
Reply: 2.41

Ask: What measured protein stability index goes with FSPDFTLRNTLKSTSEDFLVKQEC [S18F] ?
Reply: 1.87

Ask: Using the record for FSADFTLRNTLKSTSEDSLVKQEC [P3A] , report its protein stability index.
Reply: 1.97

Ask: What does the data say about its protein stability index? Entry: FSPDFTLRNTAKSTSEDSLVKQEC [L11A]
Reply: 1.57

Ask: Given the variant FSPDFWLRNTLKSTSEDSLVKQEC [T6W] , what is its reported protein stability index?
Reply: 1.84

Ask: Field request: protein stability index | item: FSPDFTLMNTLKSTSEDSLVKQEC [R8M]
Reply: 1.77

Ask: // returns reported protein stability index for input FSPDFTLRNTLKSTSEDSLVKQMC [E23M]
Reply: 1.88

Ask: So what does the record say about protein stability index for FSPDFTLRNTLKSTSEDSYVKQEC [L19Y] ?
Reply: 2.24

Ask: Query (variant): FSPDNTLRNTLKSTSEDSLVKQEC [F5N] ; field requested: protein stability index
Reply: 3.82

Ask: Given FSPDFTLRYTLKSTSEDSLVKQEC [N9Y] , state its recorded protein stability index.
Reply: 3.7

Ask: Recorded protein stability index for HSPDFTLRNTLKSTSEDSLVKQEC [F1H] , please?
Reply: 4.96

Ask: Which protein stability index value is on record for FSPDFHLRNTLKSTSEDSLVKQEC [T6H] ?
Reply: 1.45

Ask: Which protein stability index is reported for this variant? FSPDFTLRNTLKSTSEDSLVKIEC [Q22I]
Reply: 2.06

Ask: Give its protein stability index value. Item: FSPDFTLRNTLKSQSEDSLVKQEC [T14Q]
Reply: 2.31

Ask: For the variant shown here, FSPDFTLRNTLKSTSEDSLVKQCC [E23C] , give the reported protein stability index.
Reply: 2.49

Ask: Field request: protein stability index | item: FSPDFTLRNTLKSTSEDSLVKFEC [Q22F]
Reply: 2.65

Ask: Request the reported protein stability index associated with FSPDFTLRNTLKSTSEDSLMKQEC [V20M]
Reply: 2.29

Ask: Query: protein stability index; subject: FSPDFTLRNGLKSTSEDSLVKQEC [T10G]
Reply: 2.03

Ask: Quick check: protein stability index of FSPDFTLRNTLKSTSEHSLVKQEC [D17H] ?
Reply: 2.34

Ask: Find the recorded protein stability index belonging to FSPDFTLRNTNKSTSEDSLVKQEC [L11N] and report it.
Reply: 1.94

Ask: Fill in: protein stability index of FSPDFCLRNTLKSTSEDSLVKQEC [T6C] is ___
Reply: 2.73

Ask: So what's the measured protein stability index for this one? FSPDFTLRNTLKSTVEDSLVKQEC [S15V]
Reply: 1.48

Ask: Returns the measured protein stability index for the input variant. Input: FSPDFTLRNTLTSTSEDSLVKQEC [K12T]
Reply: 1.67

Ask: Requested field: protein stability index. Item: FSPDFTERNTLKSTSEDSLVKQEC [L7E]
Reply: 2.99

Ask: # query: protein stability index of entry FSPKFTLRNTLKSTSEDSLVKQEC [D4K]
Reply: 2.23

Ask: Fill in: protein stability index of FSPDFTLRNTPKSTSEDSLVKQEC [L11P] is ___
Reply: 2.11

Ask: Need protein stability index of FWPDFTLRNTLKSTSEDSLVKQEC [S2W] , thanks.
Reply: 3.6

Ask: Which measured protein stability index value corresponds to FSPDFTLRNTLKSTSDDSLVKQEC [E16D] ?
Reply: 2.54

Ask: Which protein stability index value belongs to FSPGFTLRNTLKSTSEDSLVKQEC [D4G] ?
Reply: 2.65

Ask: Item FSPDFTLRNTLKSTCEDSLVKQEC [S15C] has what recorded protein stability index?
Reply: 2.71

Ask: Look up protein stability index: FSNDFTLRNTLKSTSEDSLVKQEC [P3N]
Reply: 3.08
